molecular target: PHGDH (Homo sapiens (Human), UniProt O43175); assay: 3-Phosphoglycerate Dehydrogenase (PHGDH) Fluorescence Intensity Assay, run at two NAD/3-PG ratios: PHGDH_HIGH_NAD/3-PG (250 μM NAD/500 μM 3-PG) and PHGDH_500_NAD/3-PG (500 μM NAD/500 μM 3-PG); type: biochemical; details: 500 μM NAD/500 μM 3-PG; read-out: IC50 (PHGDH_500_NAD/3-PG)
Sequence (O43175 2-533 limits assumed): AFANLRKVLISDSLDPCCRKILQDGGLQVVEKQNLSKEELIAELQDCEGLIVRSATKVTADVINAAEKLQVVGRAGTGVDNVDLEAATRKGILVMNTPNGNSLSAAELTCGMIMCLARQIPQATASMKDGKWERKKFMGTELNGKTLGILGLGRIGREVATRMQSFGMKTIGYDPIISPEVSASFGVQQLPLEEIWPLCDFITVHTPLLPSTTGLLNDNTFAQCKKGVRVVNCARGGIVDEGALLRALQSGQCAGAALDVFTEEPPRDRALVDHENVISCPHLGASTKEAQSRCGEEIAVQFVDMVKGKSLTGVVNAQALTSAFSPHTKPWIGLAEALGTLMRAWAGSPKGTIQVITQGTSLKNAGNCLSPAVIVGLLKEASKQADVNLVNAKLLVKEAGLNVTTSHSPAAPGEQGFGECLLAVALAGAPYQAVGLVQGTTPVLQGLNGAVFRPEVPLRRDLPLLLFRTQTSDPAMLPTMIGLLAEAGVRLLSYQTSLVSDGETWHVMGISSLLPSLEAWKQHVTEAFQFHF
The compounds listed here are annotated with their pIC50.
# log scale: pIC50 equals minus log10 of the concentration in mol/L

Here is how some compounds turned out for pIC50.
{"compound": "Cc1cc2c(cc(C(=O)N[C@H](CO)c3ccc(S(=O)(=O)CC(=O)O)cc3)n2C)c(Cl)c1Cl [Example 03-006]", "value-reported": 8.40}
{"compound": "CCCC(C(=O)O)S(=O)(=O)c1ccc([C@@H](C)NC(=O)c2cc3c(Cl)cc(C)cc3n2C)cc1 (stereo partly shown) [Example 07-012]", "value-reported": 7.80}
{"compound": "Cc1cc2c(cc(C(=O)N[C@H](CO)c3ccc(S(=O)(=O)CC(=O)OC4CCOCC4)cc3)n2C)c(F)c1F [Example 09-037]", "value-reported": 6.24}
{"compound": "Cc1cc(Cl)c2cc(C(=O)N[C@H](C)c3ccc([S@@+]([O-])CC(=O)O)cc3)n(C)c2c1 [Example 12-006]", "value-reported": 7.02}
{"compound": "Cc1cc2c(cc(C(=O)N[C@H](CO)c3ccc([S@+]([O-])CC(=O)O)cc3)n2C)c(F)c1F [Example 12-009]", "value-reported": 7.49}

If you can, please state the reported pIC50 value of Cc1cc2c(cc(C(=O)N[C@H](C)c3ccc(S(=O)(=O)C4CCCOC4=O)cc3)n2C)c(Cl)c1Cl (stereo partly shown) [Example 05-025] .
7.70

What value of measured pIC50 is listed for COC(=O)C[S+]([O-])c1ccc([C@@H](C)NC(=O)c2cc3c(Cl)c(Cl)c(C)cc3n2C)cc1 (stereo partly shown) [Example 11-001] ?
6.36

---

biological target: PHGDH (Homo sapiens (Human)); test: 3-Phosphoglycerate Dehydrogenase (PHGDH) Fluorescence Intensity Assay, run at two NAD/3-PG ratios: PHGDH_HIGH_NAD/3-PG (250 μM NAD/500 μM 3-PG) and PHGDH_500_NAD/3-PG (500 μM NAD/500 μM 3-PG); assay type: biochemical; conditions: 250 μM NAD/500 μM 3-PG; read-out: IC50 (PHGDH_HIGH_NAD/3-PG)
parameter-measured: log10 IC50 (log10 of the value in µM)
Scale type: logarithmic (base 10). Underlying IC50 unit: µM.

{"compound": "Cc1cc(Cl)c2cc(C(=O)N[C@H](C)c3ccc([S+]([O-])CC(=O)O)cc3)n(C)c2c1 (some centres unmarked)", "log10 IC50": -1.96}
{"compound": "Cc1cc(Cl)c2cc(C(=O)N[C@H](C)c3ccc(S(=O)(=O)CC(=O)OCCO)cc3)n(C)c2c1", "log10 IC50": -0.78}
{"compound": "CC(C(=O)O)S(=O)(=O)c1ccc([C@@H](C)NC(=O)c2cc3cc(Cl)ccc3n2C)cc1 (some centres unmarked)", "log10 IC50": -0.72}
{"compound": "COC(=O)CS(=O)(=O)c1ccc([C@@H](C)NC(=O)c2cc3c(Cl)c(Cl)c(C)cc3n2C)cc1", "log10 IC50": -0.36}

Would you mind telling me what log10 IC50 value was observed for Cc1cc(-c2cc(C(=O)N[C@H](C)c3ccc(S(=O)(=O)CC(=O)OC(C)C)cc3)n(C)n2)ccc1F ?
0.74
